# systemName: T1, human IL-13 (human, UniProt P35225 35-146, biotinylated on the Biacore chip)
# T1 construct: also called hIL-13; recombinant human IL-13
# T1 sequence (P35225 35-146 limits assumed): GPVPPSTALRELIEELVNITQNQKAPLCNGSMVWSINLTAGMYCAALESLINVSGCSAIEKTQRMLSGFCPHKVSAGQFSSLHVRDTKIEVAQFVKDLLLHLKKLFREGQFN
# protocolDescription: assay not named ('Potency IC50')
parameter: pIC50
Please treat pIC50 as minus the base-10 logarithm of the molar concentration.

Example cases with answers are listed next.
{"binder": "DOM10-53-434 (other, VH dAb) VH: GVQLLESGGGLVQPGGSLRLSCAASGFIFAWYDMGWVRQAPGKGLEWVSSIDWKGGKTYYADSVKGRFTISRDNSKNTLYLQMNSLRAEDTAVYYCATAEDEPGYDYWGQGTLVTVSS", "resultNumber": 9.54}
{"binder": "DOM10-53-531 (other, VH dAb) VH: GVQLLESGGGLVQPGGSLRLSCAASGFTFAWYDMGWVRQAPGKGLEWVSSIDWKGGKTYYADSVKGRFTISRDNSKNTLYLQMNSLRAEDTAVYYCATAEDEPGYDYWGQGTLVTVSS", "resultNumber": 9.47}
{"binder": "DOM10-53-472 (other, VH dAb) VH: GVQLLESGGGLVQPGGSLRLSCAASGFIFAWYDMKWVRQAPGKGLEWVSSIDWHGKITYYADSVKGRFTISRDNSKNTLYLQMNSLRAEDTAVYYCATAEDEPGYDYWGQGTLVTVSS", "resultNumber": 10.27}

Query binder follows.
Input: Fill in the blank: the reported pIC50 of DOM10-53 (other, VH dAb) VH: GVQLLESGGGLVQPGGSLRLSCAASGFTFAWYDMGWARQAPGKGLEWVSSIDDSGTQTYYADSVKGRFTISRDNSKNTLYLQMNSLRAEDTAVYYCATAERDDTFDYWGQGTLVTVSS is ____.
Output: 7.00

Data origin, for the record: patent US20090060916A1
